# ASSAY_DETAILS: in vivo
# STUDY_CONDITIONS: rat, plasma, iv, 0.5 mg/kg
# Procedure: Since previous pharmacokinetic data were extremely sparse, a pilot study was performed in rats (n = 2), and simulations were performed in Berkeley Madonna (version 8.3.18 for Windows, Berkeley, CA, USA), defining suitable dose and sampling intervals from the parameters obtained in the pilot study. […]
QUANTITY_KIND: AUC(0-inf) (ng·h/mL)
One number for each entry, in ng·h/mL.

What measured AUC(0-inf) goes with CC[C@H](C)[C@@H]1NC(=O)[C@@H]2CCCN2C(=O)[C@@H]2CCCN2C(=O)[C@H]([C@@H](C)CC)NC(=O)[C@H](CO)NC(=O)[C@H](CCCCN)NC(=O)[C@H]([C@@H](C)O)NC(=O)[C@@H]2CSSC[C@H](NC1=O)C(=O)N[C@@H](Cc1ccccc1)C(=O)N1CCC[C@H]1C(=O)N[C@@H](CC(=O)O)C(=O)NCC(=O)N[C@@H](CCCNC(=N)N)C(=O)N2 ?
1290

Source listed as paper PMC10222203.
